Measured Target: human factor XIa (Homo sapiens)
Structures can show the parent of a compound that is named as a salt.
Mark each entry T if its IC50 sits below 6 nM, and F for all others.

input: Is IC50 strictly under 6 nM for the entry Cc1cc(C(=O)NC(C)C)ccc1-c1ccc(C[C@H](NC(=O)[C@H]2CC[C@H](CN)CC2)C(=O)Nc2cc(Cl)c3cn[nH]c3c2)cc1 [Example 159, hydrochloride] ?
output: T

input: Is IC50 strictly under 6 nM for the entry COC(=O)C(F)(F)C(F)(F)c1n[nH]c(-c2ccc(NC(=O)[C@H](Cc3ccc(-c4ccc(C(=O)NC5CCNCC5)cc4C)cc3)NC(=O)[C@H]3CC[C@H](CN)CC3)cc2)n1 [Example 129, hydrochloride] ?
output: T

input: Strictly below 6 nM in IC50? Cc1cc(C(=O)N[C@@H]2C[C@@H](CO)NC2=O)ccc1-c1ccc(C[C@H](NC(=O)[C@H]2CC[C@H](CN)CC2)C(=O)Nc2ccc3[nH]c(=O)[nH]c3c2)cc1 [Example 97, hydrochloride]
output: T

input: Is it true that IC50 reported for Cc1cc(C(=O)NC2CC3CCC(C2)N3C)ccc1-c1ccc(C[C@H](NC(=O)C2CCC(CN)CC2)C(=O)Nc2ccc(-c3nn[nH]n3)cc2)cc1 (some centres unmarked) [Example 44, hydrochloride] is less than 6 nM?
output: T

input: Would you kindly verify if IC50 of NC[C@H]1CC[C@H](C(=O)N[C@@H](Cc2ccc(-c3ccc(C(=O)NC4CCNCC4)c(C(F)(F)F)c3)cc2)C(=O)Nc2ccc(-c3nn[nH]n3)cc2)CC1 [Example 120, hydrochloride] is strictly less than 6 nM?
output: F

====

What follows is a collection of pIC50 values obtained with human factor XIa (Homo sapiens, UniProt P03951).
Sequence (P03951 388-625 limits assumed): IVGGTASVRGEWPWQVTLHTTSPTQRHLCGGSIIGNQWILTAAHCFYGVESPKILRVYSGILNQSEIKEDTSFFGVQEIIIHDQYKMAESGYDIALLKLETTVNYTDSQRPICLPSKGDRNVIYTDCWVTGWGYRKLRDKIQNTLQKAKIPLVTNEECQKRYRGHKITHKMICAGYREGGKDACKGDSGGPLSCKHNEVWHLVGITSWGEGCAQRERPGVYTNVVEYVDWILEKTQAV
Sequence (P03951 19-387 partner limits assumed): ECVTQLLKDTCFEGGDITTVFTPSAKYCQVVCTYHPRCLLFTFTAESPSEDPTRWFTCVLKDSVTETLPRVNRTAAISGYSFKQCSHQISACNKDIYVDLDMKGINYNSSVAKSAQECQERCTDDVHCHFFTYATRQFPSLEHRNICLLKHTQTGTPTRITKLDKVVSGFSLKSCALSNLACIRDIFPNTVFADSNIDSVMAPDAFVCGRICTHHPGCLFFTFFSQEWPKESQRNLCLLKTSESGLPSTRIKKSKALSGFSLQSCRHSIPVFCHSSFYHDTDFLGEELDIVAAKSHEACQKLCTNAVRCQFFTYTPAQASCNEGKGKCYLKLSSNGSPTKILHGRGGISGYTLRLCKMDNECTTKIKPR
Structures can show the parent of a compound that is named as a salt.
pIC50 (log units): -log10 of the concentration in mol/L.

input: What pIC50 appears in the records for this compound with human factor XIa (Homo sapiens, UniProt P03951)? Cc1cc(C(=O)NC2CCNCC2)ccc1-c1ccc(C[C@H](NC(=O)[C@H]2CC[C@H](CN)CC2)C(=O)Nc2ccc3nc(C(F)F)[nH]c3c2)cc1 [Example 86, hydrochloride]
output: 7.89

input: Test system human factor XIa (Homo sapiens, UniProt P03951); read-out pIC50; what value for Cc1cc(C(=O)NC(C)CO)ccc1-c1ccc(C[C@H](NC(=O)[C@H]2CC[C@H](CN)CC2)C(=O)Nc2ccc(-c3nnn[nH]3)cc2)cc1 (some centres unmarked) [Example 139, hydrochloride] ?
output: 8.39

input: Form field: pIC50 recorded for CCN(CC)CCNC(=O)c1ccc(-c2ccc(C[C@H](NC(=O)[C@H]3CC[C@H](CN)CC3)C(=O)Nc3ccc(-c4nn[nH]n4)cc3)cc2)c(C)c1.Cl [Example 2, hydrochloride] with human factor XIa (Homo sapiens, UniProt P03951) (enter value)
output: 8.31

input: Lookup: pIC50 / human factor XIa (Homo sapiens, UniProt P03951) / Cc1cc(C(=O)NC2CCC(O)C2)ccc1-c1ccc(CC(NC(=O)C2CCC(CN)CC2)C(=O)Nc2ccc(-c3nnn[nH]3)c(F)c2)cc1 (centres unmarked) [Example 92, hydrochloride]
output: 8.74

input: What pIC50 appears in the records for this compound with human factor XIa (Homo sapiens, UniProt P03951)? Cc1cc(C(=O)NC2CCC(N(C)C)CC2)ccc1-c1ccc(C[C@H](NC(=O)[C@H]2CC[C@H](CN)CC2)C(=O)Nc2ccc(-c3nn[nH]n3)c(F)c2)cc1 (some centres unmarked) [Example 63, hydrochloride]
output: 8.68

Taken from patent US20160272617A1.
